# TARGET_ENTITY: Prostaglandin G/H synthase 2 (Homo sapiens, UniProt P35354)
# Sequence (P35354 whole entry): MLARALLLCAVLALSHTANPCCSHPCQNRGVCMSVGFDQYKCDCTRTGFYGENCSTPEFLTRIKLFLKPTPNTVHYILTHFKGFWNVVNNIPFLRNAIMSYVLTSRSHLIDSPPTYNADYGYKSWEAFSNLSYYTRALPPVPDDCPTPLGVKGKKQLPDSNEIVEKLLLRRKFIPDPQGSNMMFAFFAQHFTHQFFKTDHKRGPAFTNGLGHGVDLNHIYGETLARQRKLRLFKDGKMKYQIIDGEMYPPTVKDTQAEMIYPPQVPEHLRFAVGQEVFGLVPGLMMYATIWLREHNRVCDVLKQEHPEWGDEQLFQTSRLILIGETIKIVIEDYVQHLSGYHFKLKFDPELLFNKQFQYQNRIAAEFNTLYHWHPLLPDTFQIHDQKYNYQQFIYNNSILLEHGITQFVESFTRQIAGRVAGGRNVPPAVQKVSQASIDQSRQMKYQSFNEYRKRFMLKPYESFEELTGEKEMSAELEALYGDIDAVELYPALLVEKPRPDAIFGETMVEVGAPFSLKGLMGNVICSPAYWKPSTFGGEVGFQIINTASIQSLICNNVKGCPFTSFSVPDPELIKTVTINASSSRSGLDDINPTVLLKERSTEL
# ASSAY_PROCEDURE: Inhibitory concentration against human whole blood Prostaglandin G/H synthase 2 enzyme activity was determined
Flag rule - IC50 less than 4 µM flags True; the remaining entries get False.

COMPOUND_SMILES	CATEGORY
COc1ccc(Oc2c(C)[nH]c3cccc(S(C)(=O)=O)c23)cc1	True
COc1ccc(Sc2c(C#N)[nH]c3cc(S(C)(=O)=O)ccc23)c(Cl)c1	True
Cc1[nH]c2cc(S(C)(=O)=O)ccc2c1Sc1ccccn1	False
Cc1[nH]c2cc(S(C)(=O)=O)ccc2c1Cc1ccc(F)cc1F	False
CS(=O)(=O)c1ccc2c(Sc3ccccc3Cl)c(C#N)[nH]c2c1	True
COC(=O)c1[nH]c2cc(S(C)(=O)=O)ccc2c1Sc1ccc(F)cc1	True
COc1ccc(Sc2c(C)[nH]c3cc(S(C)(=O)=O)ccc23)cc1	False
CS(=O)(=O)c1ccc2c(Sc3ccc(F)cc3)c(CO)[nH]c2c1	False
Cc1[nH]c2cc(S(C)(=O)=O)ccc2c1Oc1ccc(Cl)cc1	True
CS(=O)(=O)c1ccc2c(Sc3ccc(F)cc3)c(C(N)=O)[nH]c2c1	False
CS(=O)(=O)c1ccc2c(Sc3ccc(F)cc3)c(C#N)[nH]c2c1	True
CS(=O)(=O)c1ccc2c(Sc3ccc(F)cc3F)c(C#N)[nH]c2c1	True
COc1ccc(C(=O)c2c(C)[nH]c3cc(S(C)(=O)=O)ccc23)cc1	True
Cc1[nH]c2cc(S(C)(=O)=O)ccc2c1Sc1ccc(F)cc1F	True
COc1ccc(Oc2c(C)[nH]c3cc(S(C)(=O)=O)ccc23)cc1	True
COc1ccc(Cc2c(C)[nH]c3cc(S(C)(=O)=O)ccc23)cc1	False
Cc1[nH]c2cc(S(C)(=O)=O)ccc2c1Cc1ccc(F)cc1	False
Cc1[nH]c2cc(S(C)(=O)=O)ccc2c1Cc1ccc(Cl)cc1	False
Cc1[nH]c2cc(S(C)(=O)=O)ccc2c1Sc1ccc(F)cc1	True
Cc1[nH]c2cc(S(C)(=O)=O)ccc2c1C(=O)c1ccc(F)cc1	True
COC(=O)c1[nH]c2cc(S(C)(=O)=O)ccc2c1Sc1ccc(F)cc1F	True
Cc1[nH]c2cc(S(C)(=O)=O)ccc2c1Cc1ccccc1Cl	False
CS(=O)(=O)c1ccc2c(Sc3ccc(F)cc3F)c(C(N)=O)[nH]c2c1	False
Cc1[nH]c2cc(S(C)(=O)=O)ccc2c1Oc1ccc(F)cc1	True

---

# ASSAY_PROCEDURE: Area under curve plasma concentration of compound in rat when administered perorally at 10 mg/kg dose
# Assay type: ADME, organism-based
# Set-up: dose 10 mg/kg, route oral
# TEST_CONTEXT: in vivo, po

COMPOUND_SMILES	AUC
Cc1[nH]c2cc(S(C)(=O)=O)ccc2c1Sc1ccc(F)cc1F	118 µM·h
Cc1[nH]c2cc(S(C)(=O)=O)ccc2c1Oc1ccc(F)cc1	35 µM·h
Cc1[nH]c2cc(S(C)(=O)=O)ccc2c1Cc1ccc(F)cc1F	72 µM·h
CS(=O)(=O)c1ccc2c(Sc3ccc(F)cc3F)c(C#N)[nH]c2c1	316 µM·h
CS(=O)(=O)c1ccc2c(Sc3ccccc3Cl)c(C#N)[nH]c2c1	56 µM·h

---

# ASSAY_PROCEDURE: Plasma half life of compound was determined in rat
# Assay type: ADME
RECORDED_ENDPOINT: half-life (h)

COMPOUND_SMILES	RECORDED_ENDPOINT	RESULT_VALUE
Cc1[nH]c2cc(S(C)(=O)=O)ccc2c1Oc1ccc(F)cc1	half-life	6.2
CS(=O)(=O)c1ccc2c(Sc3ccc(F)cc3F)c(C#N)[nH]c2c1	half-life	6.3
Cc1[nH]c2cc(S(C)(=O)=O)ccc2c1Cc1ccc(F)cc1F	half-life	4.1

---

# TARGET_ENTITY: Prostaglandin G/H synthase 2 (Homo sapiens)
# ASSAY_PROCEDURE: In vitro inhibitory concentration against Prostaglandin G/H synthase 2 enzyme activity
Listed here are compounds together with their documented IC50.
RECORDED_ENDPOINT: IC50 (nM)

COMPOUND_SMILES	RECORDED_ENDPOINT	RESULT_UNIT	CENSORING_SIGN	RESULT_VALUE
COc1ccc(Oc2c(C)[nH]c3cc(S(C)(=O)=O)ccc23)cc1	IC50	nM	=	200
Cc1[nH]c2cc(S(C)(=O)=O)ccc2c1Cc1ccc(F)cc1F	IC50	nM	=	260
CS(=O)(=O)c1ccc2c(Sc3ccc(F)cc3)c(C(=O)O)[nH]c2c1	IC50	nM	>	40000
CS(=O)(=O)c1ccc2c(Sc3ccc(F)cc3)c(CO)[nH]c2c1	IC50	nM	=	420
Cc1[nH]c2cc(S(C)(=O)=O)ccc2c1Cc1ccc(F)cc1	IC50	nM	=	80
Cc1[nH]c2cc(S(C)(=O)=O)ccc2c1Cc1ccccc1Cl	IC50	nM	=	70

---

# TARGET_ENTITY: Prostaglandin G/H synthase 1 (Homo sapiens)
# ASSAY_PROCEDURE: Inhibitory concentration against human whole blood Prostaglandin G/H synthase 1 enzyme activity

COMPOUND_SMILES	TARGET_ENTITY	RESULT_UNIT	CENSORING_SIGN	IC50
Cc1[nH]c2cc(S(C)(=O)=O)ccc2c1Sc1ccc(F)cc1	Prostaglandin G/H synthase 1 (Homo sapiens)	µM	=	55.7
Cc1[nH]c2cc(S(C)(=O)=O)ccc2c1Cc1ccc(F)cc1	Prostaglandin G/H synthase 1 (Homo sapiens)	µM	=	63.9
Cc1[nH]c2cc(S(C)(=O)=O)ccc2c1Cc1ccc(F)cc1F	Prostaglandin G/H synthase 1 (Homo sapiens)	µM	=	98
COc1ccc(Cc2c(C)[nH]c3cc(S(C)(=O)=O)ccc23)cc1	Prostaglandin G/H synthase 1 (Homo sapiens)	µM	=	7.3
COC(=O)c1[nH]c2cc(S(C)(=O)=O)ccc2c1Sc1ccc(F)cc1F	Prostaglandin G/H synthase 1 (Homo sapiens)	µM	=	17.2
CS(=O)(=O)c1ccc2c(Sc3ccc(F)cc3)c(C(N)=O)[nH]c2c1	Prostaglandin G/H synthase 1 (Homo sapiens)	µM	>	40
Cc1[nH]c2cc(S(C)(=O)=O)ccc2c1Sc1ccc(F)cc1F	Prostaglandin G/H synthase 1 (Homo sapiens)	µM	=	18.2
COc1ccc(Sc2c(C)[nH]c3cc(S(C)(=O)=O)ccc23)cc1	Prostaglandin G/H synthase 1 (Homo sapiens)	µM	=	18
COc1ccc(Oc2c(C)[nH]c3cccc(S(C)(=O)=O)c23)cc1	Prostaglandin G/H synthase 1 (Homo sapiens)	µM	=	6
CS(=O)(=O)c1ccc2c(Sc3ccccc3Cl)c(C#N)[nH]c2c1	Prostaglandin G/H synthase 1 (Homo sapiens)	µM	>	67
Cc1[nH]c2cc(S(C)(=O)=O)ccc2c1C(=O)c1ccc(F)cc1	Prostaglandin G/H synthase 1 (Homo sapiens)	µM	=	2.44

---

# ASSAY_PROCEDURE: In vitro inhibitory concentration against Prostaglandin G/H synthase 1 enzyme activity

COMPOUND_SMILES	IC50
COc1ccc(Cc2c(C)[nH]c3cc(S(C)(=O)=O)ccc23)cc1	> 45 µM
Cc1[nH]c2cc(S(C)(=O)=O)ccc2c1Oc1ccc(F)cc1F	39.5 µM
COc1ccc(Oc2c(C)[nH]c3cc(S(C)(=O)=O)ccc23)cc1	> 30 µM
Cc1[nH]c2cc(S(C)(=O)=O)ccc2c1Sc1ccc(F)cc1	> 40 µM
Cc1[nH]c2cc(S(C)(=O)=O)ccc2c1C(=O)c1ccc(F)cc1	100 µM
Cc1[nH]c2cc(S(C)(=O)=O)ccc2c1Cc1ccc(F)cc1	> 40 µM
Cc1[nH]c2cc(S(C)(=O)=O)ccc2c1Cc1ccc(F)cc1F	> 40 µM
Cc1[nH]c2cc(S(C)(=O)=O)ccc2c1Oc1ccc(Cl)cc1Cl	25.8 µM
COc1ccc(Sc2c(C)[nH]c3cc(S(C)(=O)=O)ccc23)cc1	9 µM
Cc1[nH]c2cc(S(C)(=O)=O)ccc2c1Oc1ccc(F)cc1	> 40 µM
Cc1[nH]c2cc(S(C)(=O)=O)ccc2c1Cc1ccc(Cl)cc1	> 40 µM

---

# TARGET_ENTITY: Prostaglandin G/H synthase 1 (Homo sapiens, UniProt P23219)
# Sequence (P23219 whole entry): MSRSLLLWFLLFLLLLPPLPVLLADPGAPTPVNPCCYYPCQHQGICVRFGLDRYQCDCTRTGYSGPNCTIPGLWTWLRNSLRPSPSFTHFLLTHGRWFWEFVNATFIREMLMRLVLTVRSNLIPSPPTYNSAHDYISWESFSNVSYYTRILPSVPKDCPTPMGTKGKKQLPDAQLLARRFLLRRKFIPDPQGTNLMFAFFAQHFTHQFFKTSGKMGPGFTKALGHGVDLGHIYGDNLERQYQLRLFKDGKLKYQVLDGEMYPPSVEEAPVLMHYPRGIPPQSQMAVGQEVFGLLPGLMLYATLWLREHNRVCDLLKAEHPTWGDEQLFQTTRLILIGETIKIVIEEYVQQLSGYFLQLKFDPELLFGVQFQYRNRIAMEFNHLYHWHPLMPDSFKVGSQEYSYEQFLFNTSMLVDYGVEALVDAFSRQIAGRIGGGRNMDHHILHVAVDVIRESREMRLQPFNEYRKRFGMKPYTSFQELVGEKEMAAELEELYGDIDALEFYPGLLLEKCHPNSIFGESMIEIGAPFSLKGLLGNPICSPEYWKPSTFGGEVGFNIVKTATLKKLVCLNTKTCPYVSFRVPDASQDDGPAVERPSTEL
# ASSAY_PROCEDURE: Inhibitory concentration against human whole blood Prostaglandin G/H synthase 1
RECORDED_ENDPOINT: IC50 (µM)

COMPOUND_SMILES	RESULT_VALUE
Cc1[nH]c2cc(S(C)(=O)=O)ccc2c1Oc1ccc(F)cc1	37

---

# TARGET_ENTITY: Prostaglandin G/H synthase 1 (Homo sapiens, UniProt P23219)
# ASSAY_PROCEDURE: Inhibitory concentration against human whole blood Prostaglandin G/H synthase 1 enzyme activity
pIC50: −log10 of the molar value.

COMPOUND_SMILES	CENSORING_SIGN	pIC50
CS(=O)(=O)c1ccc2c(Sc3ccc(F)cc3F)c(C(N)=O)[nH]c2c1	<	4.40
CS(=O)(=O)c1ccc2c(Sc3ccc(F)cc3)c(CO)[nH]c2c1	<	4.00
Cc1[nH]c2cc(S(C)(=O)=O)ccc2c1Oc1ccc(Cl)cc1Cl	=	4.48
Cc1[nH]c2cc(S(C)(=O)=O)ccc2c1Cc1ccc(Cl)cc1	=	4.15
COC(=O)c1[nH]c2cc(S(C)(=O)=O)ccc2c1Sc1ccc(F)cc1	=	5.03
COc1ccc(Oc2c(C)[nH]c3cc(S(C)(=O)=O)ccc23)cc1	=	5.22
Cc1[nH]c2cc(S(C)(=O)=O)ccc2c1Oc1ccc(Cl)cc1	=	4.92
Cc1[nH]c2cc(S(C)(=O)=O)ccc2c1Oc1ccc(F)cc1F	=	4.48
COc1ccc(C(=O)c2c(C)[nH]c3cc(S(C)(=O)=O)ccc23)cc1	=	5.46
CS(=O)(=O)c1ccc2c(Sc3ccc(F)cc3)c(C#N)[nH]c2c1	<	3.90
CS(=O)(=O)c1ccc2c(Sc3ccc(F)cc3F)c(C#N)[nH]c2c1	<	4.22
Cc1[nH]c2cc(S(C)(=O)=O)ccc2c1Sc1ccccn1	=	4.52
COc1ccc(Sc2c(C#N)[nH]c3cc(S(C)(=O)=O)ccc23)c(Cl)c1	=	5.09
Cc1[nH]c2cc(S(C)(=O)=O)ccc2c1Cc1ccccc1Cl	=	3.93
